Just for reference, the supplement of paper PMC6555819 is where these values come from.

Listed next: entries and their corresponding PBM binding z-score.
# Tested on: PPARg:RXRa (NR concentration 180 nM, RXRa partner concentration 90 nM)
# METHOD NOTES: PBM binding z-score (relative to random genomic background probes); higher = stronger binding; sequences stand for … in GC…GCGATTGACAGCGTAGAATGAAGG
MEASURED ATTRIBUTE: PBM binding z-score

>  <SEQUENCE TEXT>
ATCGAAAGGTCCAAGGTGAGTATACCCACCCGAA

>  <TARGET SYSTEM>
PPARg:RXRa (NR concentration 180 nM, RXRa partner concentration 90 nM)

>  <REPORTED RESULT>
1.01

$$$$
>  <SEQUENCE TEXT>
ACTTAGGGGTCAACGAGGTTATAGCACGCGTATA

>  <TARGET SYSTEM>
PPARg:RXRa (NR concentration 180 nM, RXRa partner concentration 90 nM)

>  <REPORTED RESULT>
9.33

$$$$
>  <SEQUENCE TEXT>
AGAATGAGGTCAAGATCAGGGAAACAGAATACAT

>  <TARGET SYSTEM>
PPARg:RXRa (NR concentration 180 nM, RXRa partner concentration 90 nM)

>  <REPORTED RESULT>
7.59

$$$$
>  <SEQUENCE TEXT>
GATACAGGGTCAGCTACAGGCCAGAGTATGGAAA

>  <TARGET SYSTEM>
PPARg:RXRa (NR concentration 180 nM, RXRa partner concentration 90 nM)

>  <REPORTED RESULT>
4.13

$$$$
>  <SEQUENCE TEXT>
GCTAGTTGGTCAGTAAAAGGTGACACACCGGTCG

>  <TARGET SYSTEM>
PPARg:RXRa (NR concentration 180 nM, RXRa partner concentration 90 nM)

>  <REPORTED RESULT>
0.834

$$$$
>  <SEQUENCE TEXT>
CGTCAAAGGTCAAAGGTCAGTGAAGAGATGACGG

>  <TARGET SYSTEM>
PPARg:RXRa (NR concentration 180 nM, RXRa partner concentration 90 nM)

>  <REPORTED RESULT>
11.4

$$$$
>  <SEQUENCE TEXT>
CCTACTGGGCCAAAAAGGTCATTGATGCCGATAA

>  <TARGET SYSTEM>
PPARg:RXRa (NR concentration 180 nM, RXRa partner concentration 90 nM)

>  <REPORTED RESULT>
3.35

$$$$
>  <SEQUENCE TEXT>
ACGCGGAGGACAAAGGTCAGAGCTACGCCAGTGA

>  <TARGET SYSTEM>
PPARg:RXRa (NR concentration 180 nM, RXRa partner concentration 90 nM)

>  <REPORTED RESULT>
7.04

$$$$
>  <SEQUENCE TEXT>
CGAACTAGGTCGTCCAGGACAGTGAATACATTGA

>  <TARGET SYSTEM>
PPARg:RXRa (NR concentration 180 nM, RXRa partner concentration 90 nM)

>  <REPORTED RESULT>
2.47

$$$$
>  <SEQUENCE TEXT>
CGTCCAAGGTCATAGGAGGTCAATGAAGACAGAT

>  <TARGET SYSTEM>
PPARg:RXRa (NR concentration 180 nM, RXRa partner concentration 90 nM)

>  <REPORTED RESULT>
5.9

$$$$
>  <SEQUENCE TEXT>
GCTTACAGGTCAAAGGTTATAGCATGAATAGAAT

>  <TARGET SYSTEM>
PPARg:RXRa (NR concentration 180 nM, RXRa partner concentration 90 nM)

>  <REPORTED RESULT>
11.5

$$$$
>  <SEQUENCE TEXT>
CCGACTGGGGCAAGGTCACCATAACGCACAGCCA

>  <TARGET SYSTEM>
PPARg:RXRa (NR concentration 180 nM, RXRa partner concentration 90 nM)

>  <REPORTED RESULT>
4.78

$$$$
